biological target: 5-HT2A receptor (UniProt P28223); assay: 5-HT2A receptor radioligand binding ([3H]ketanserin); conditions: read-out: Ki 5-HT2A, table does not say whether rat cortex or human recombinant (NIH3T3) receptor;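 further: competitive displacement binding on membranes, either from rat cerebral cortex or from NIH3T3 cells stably expressing human 5-HT2A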
Hi there, I'd appreciate the recorded Ki for every entry that follows.
Record the value in nM, omitting the unit from your answer.

Input line: Which Ki value belongs to CC(C)n1nc2c(c1-c1ccc(C#N)cc1)CCNCC2 ?
Output line: 25

Input line: What measured Ki goes with Clc1ccc(-c2c3c(nn2C2CCCC2)CCNCC3)cc1 ?
Output line: 1.5

Input line: For the compound shown here, c1cc(-c2c3c(nn2C2CCCC2)CCNCC3)cs1 , give the reported Ki.
Output line: 2.5
